target: T338C c-Src (Gallus gallus (Chicken), UniProt P00523, T338C); test: In vitro kinase assay, T338C c-Src (c-Src-ES1); assay type: biochemical; conditions: inhibitor preincubated with Src ten minutes prior to addition of ATP; read-out: T338C c-Src IC50

- Mol smiles: "C=CS(=O)(=O)Nc1cccc(Cc2nn(C3CCCC3)c3ncnc(N)c23)c1"
  Reading unit: "nM"
  IC50: 196
- Mol smiles: "C=CC(=O)Nc1cccc(-c2nn(C(C)C)c3ncnc(N)c23)c1"
  Reading unit: "nM"
  IC50: 419
- Mol smiles: "C=CS(=O)(=O)Nc1cccc(Cc2nn(C(C)C)c3ncnc(N)c23)c1"
  Reading unit: "nM"
  IC50: 150

###

target: T338C c-Src (Gallus gallus (Chicken), UniProt P00523, T338C); experiment: In vitro kinase assay, T338C c-Src (c-Src-ES1); type: biochemical; conditions: inhibitor preincubated with Src ten minutes prior to addition of ATP; read-out: T338C c-Src IC50
pIC50: −log10 of the molar value.

- Compound: "C=CS(=O)(=O)Nc1cccc(Nc2ncnc3cc(OC)c(OC)cc23)c1 [Compound 19]"
  System tested: "T338C c-Src (Gallus gallus (Chicken), UniProt P00523, T338C)"
  Readout relation: "="
  pIC50: 6.00
- Compound: "C=CS(=O)(=O)Nc1ccc(Cc2nn(C(C)C)c3ncnc(N)c23)cc1 [Compound 10]"
  System tested: "T338C c-Src (Gallus gallus (Chicken), UniProt P00523, T338C)"
  Readout relation: "="
  pIC50: 5.75
- Compound: "C=CS(=O)(=O)Nc1cccc(-c2nn(C(C)C)c3ncncc23)c1 [Compound 4]"
  System tested: "T338C c-Src (Gallus gallus (Chicken), UniProt P00523, T338C)"
  Readout relation: "<"
  pIC50: 5.30
- Compound: "CC(C)n1nc(Cc2cccc(NC(=O)CCl)c2)c2c(N)ncnc21 [Compound 12]"
  System tested: "T338C c-Src (Gallus gallus (Chicken), UniProt P00523, T338C)"
  Readout relation: "<"
  pIC50: 5.30
- Compound: "C=CS(=O)(=O)Nc1ccc(-c2nn(C(C)C)c3ncnc(N)c23)cc1 [Compound 5]"
  System tested: "T338C c-Src (Gallus gallus (Chicken), UniProt P00523, T338C)"
  Readout relation: "="
  pIC50: 6.84

###

Entries and their IC50
biological target: c-Src-ES2 (T338C/V323A) (Gallus gallus (Chicken), UniProt P00523, T338C/V323A); test: In vitro kinase assay, c-Src-ES2; assay type: biochemical; conditions: ES2 = T338C/V323A; read-out: c-Src variant IC50 (nM) ES2

- Compound: "C=CS(=O)(=O)Nc1cccc(-c2nn(C(C)C)c3ncnc(N)c23)c1 [Compound 3]"
  IC50, nM: 63
- Compound: "CC(C)n1nc(Cc2cccc(C(=O)CF)c2)c2c(N)ncnc21 [Compound 13]"
  IC50, nM: 67
- Compound: "C=CS(=O)(=O)Nc1cccc(Cc2nn(C(C)C)c3ncnc(N)c23)c1 [Compound 9]"
  IC50, nM: 207

###

// IC50 lookup, one value per entry
target: T338C c-Src (Gallus gallus (Chicken), UniProt P00523, T338C); assay: In vitro kinase assay, T338C c-Src (c-Src-ES1); format: biochemical; details: T338C c-Src IC50 (nM), preincubation time 2 min
Recorded endpoint: IC50 (nM)

- Mol smiles: "C=CS(=O)(=O)Nc1cccc(Cc2nn(C(C)C)c3ncnc(N)c23)c1"
  Reading unit: "nM"
  Result number: 981
- Mol smiles: "CC(C)n1nc(Cc2cccc(C(=O)CF)c2)c2c(N)ncnc21"
  Reading unit: "nM"
  Result number: 1280

###

biological target: c-Src-ES3 (T338C/V323S) (Gallus gallus (Chicken), UniProt P00523, T338C/V323S); assay: In vitro kinase assay, c-Src-ES3; assay type: biochemical; conditions: ES3 = T338C/V323S; read-out: c-Src variant IC50 (nM) ES3
IC50 for assorted compounds
Recorded endpoint: IC50 (nM)

- Mol smiles: "CC(C)n1nc(Cc2cccc(C(=O)CF)c2)c2c(N)ncnc21"
  Result number: 29
- Mol smiles: "C=CS(=O)(=O)Nc1cccc(Cc2nn(C(C)C)c3ncnc(N)c23)c1"
  Result number: 424
- Mol smiles: "C=CS(=O)(=O)Nc1cccc(-c2nn(C(C)C)c3ncnc(N)c23)c1"
  Result number: 131

###

The following molecules are listed with their measured IC50 values.
target: T338C c-Src (Gallus gallus (Chicken), UniProt P00523, T338C); assay: In vitro kinase assay, T338C c-Src (c-Src-ES1); assay type: biochemical; details: ES1 = T338C; read-out: c-Src variant IC50 (nM) ES1

- Molecule: "C=CS(=O)(=O)Nc1cccc(Cc2nn(C(C)C)c3ncnc(N)c23)c1 [Compound 9]"
  IC50, nM: 150
- Molecule: "CC(C)n1nc(Cc2cccc(C(=O)CF)c2)c2c(N)ncnc21 [Compound 13]"
  IC50, nM: 338
- Molecule: "C=CS(=O)(=O)Nc1cccc(-c2nn(C(C)C)c3ncnc(N)c23)c1 [Compound 3]"
  IC50, nM: 111

###

Listing of recorded pIC50 by entry.
target: T338C c-Src (Gallus gallus (Chicken), UniProt P00523, T338C); test: In vitro kinase assay, T338C c-Src (c-Src-ES1); type: biochemical; conditions: inhibitor preincubated with Src ten minutes prior to addition of ATP; read-out: T338C c-Src IC50
pIC50: −log10 of the molar value.
Recorded endpoint: pIC50

- Mol smiles: "CCS(=O)(=O)Nc1cccc(Cc2nn(C(C)C)c3ncnc(N)c23)c1"
  Readout relation: "="
  Result number: 5.46
- Mol smiles: "CC(C)n1nc(-c2cccc(NC(=O)CCl)c2)c2c(N)ncnc21"
  Readout relation: "="
  Result number: 6.09
- Mol smiles: "C=CS(=O)(=O)Nc1cccc(Cc2nn(C(C)(C)C)c3ncnc(N)c23)c1"
  Readout relation: "="
  Result number: 6.21
- Mol smiles: "C=CC(=O)Nc1ccc(Cc2nn(C(C)C)c3ncnc(N)c23)cc1"
  Readout relation: "<"
  Result number: 5.30
- Mol smiles: "CC(C)n1nc(Cc2cccc(C(=O)CF)c2)c2c(N)ncnc21"
  Readout relation: "="
  Result number: 6.47

###

biological target: T338C c-Src (Gallus gallus (Chicken), UniProt P00523, T338C); experiment: In vitro kinase assay, T338C c-Src (c-Src-ES1); assay type: biochemical; conditions: 10 min preincubation with inhibitor prior to addition of ATP; read-out: IC50 against T338C c-Src
pIC50: −log10 of the molar value.

- Mol smiles: "C=CS(=O)(=O)Nc1cccc(-c2nn(C(C)C)c3ncncc23)c1"
  pIC50: "≤ 5.30"
- Mol smiles: "C=CC(=O)Nc1cccc(-c2nn(C(C)C)c3ncncc23)c1"
  pIC50: "≤ 5.30"

###

Reported values of IC50 for individual entries
biological target: WT c-Src (Gallus gallus (Chicken), UniProt P00523); test: In vitro kinase assay, WT c-Src; format: biochemical; conditions: inhibitor preincubated with Src ten minutes prior to addition of ATP; read-out: WT c-Src IC50

- Mol smiles: "C=CS(=O)(=O)Nc1cccc(-c2nn(C(C)C)c3ncncc23)c1"
  System tested: "WT c-Src (Gallus gallus (Chicken), UniProt P00523)"
  IC50: "> 5 µM"
- Mol smiles: "C=CC(=O)Nc1ccc(Cc2nn(C(C)C)c3ncnc(N)c23)cc1"
  System tested: "WT c-Src (Gallus gallus (Chicken), UniProt P00523)"
  IC50: "> 5 µM"
- Mol smiles: "C=CS(=O)(=O)Nc1ccc(Cc2nn(C(C)C)c3ncnc(N)c23)cc1"
  System tested: "WT c-Src (Gallus gallus (Chicken), UniProt P00523)"
  IC50: "3.08 µM"
- Mol smiles: "C=CS(=O)(=O)Nc1ccc(-c2nn(C(C)C)c3ncnc(N)c23)cc1"
  System tested: "WT c-Src (Gallus gallus (Chicken), UniProt P00523)"
  IC50: "0.899 µM"
- Mol smiles: "C=CS(=O)(=O)Nc1cccc(Cc2nn(C(C)(C)C)c3ncnc(N)c23)c1"
  System tested: "WT c-Src (Gallus gallus (Chicken), UniProt P00523)"
  IC50: "> 5 µM"
- Mol smiles: "C=CC(=O)Nc1cccc(-c2nn(C(C)C)c3ncnc(N)c23)c1"
  System tested: "WT c-Src (Gallus gallus (Chicken), UniProt P00523)"
  IC50: "2.32 µM"
- Mol smiles: "C=CS(=O)(=O)Nc1cccc(Cc2nn(C)c3ncnc(N)c23)c1"
  System tested: "WT c-Src (Gallus gallus (Chicken), UniProt P00523)"
  IC50: "> 5 µM"
- Mol smiles: "C=CS(=O)(=O)Nc1cccc(-c2nn(C(C)C)c3ncnc(N)c23)c1"
  System tested: "WT c-Src (Gallus gallus (Chicken), UniProt P00523)"
  IC50: "1 µM"
- Mol smiles: "C=CS(=O)(=O)Nc1cccc(Nc2ncnc3cc(OC)c(OC)cc23)c1"
  System tested: "WT c-Src (Gallus gallus (Chicken), UniProt P00523)"
  IC50: "> 5 µM"
